Target: human EGFR (huEGFR) over-expressed on mcl-1-/- mouse embryonic fibroblasts (human, UniProt P00533 25-1210)
Test: cell-based or functional assay

binder: AbB-TV (antibody, human IgG1, kappa, V domains shown, synthon TV on reduced interchain cysteines; average DAR 2.3 per ADC) VH: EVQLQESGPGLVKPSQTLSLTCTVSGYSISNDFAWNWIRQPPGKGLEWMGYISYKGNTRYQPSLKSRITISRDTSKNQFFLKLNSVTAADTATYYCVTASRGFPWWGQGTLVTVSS VL: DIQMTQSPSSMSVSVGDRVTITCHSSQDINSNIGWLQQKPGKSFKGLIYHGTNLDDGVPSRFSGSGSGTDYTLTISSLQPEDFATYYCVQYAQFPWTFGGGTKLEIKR
huEGFR+ mcl-1-/- MEF EC50 (nM): 2.4

binder: AbG-YG (antibody, human IgG1, kappa, V domains shown, synthon YG on reduced interchain cysteines; average DAR 3.7 per ADC) VH: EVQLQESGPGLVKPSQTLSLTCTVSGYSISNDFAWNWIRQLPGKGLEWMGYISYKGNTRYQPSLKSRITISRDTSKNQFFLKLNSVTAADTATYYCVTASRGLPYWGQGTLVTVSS VL: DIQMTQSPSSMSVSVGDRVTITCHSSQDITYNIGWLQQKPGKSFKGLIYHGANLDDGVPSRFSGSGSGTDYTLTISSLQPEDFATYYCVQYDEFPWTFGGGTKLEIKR
huEGFR+ mcl-1-/- MEF EC50 (nM): 1
